As shown below, each of these binders has a reported pKd value.
target: cyno ST2L (cyno); experiment: affinity table; method not stated
Expect pKd as a plain number equal to -log10 of the molar concentration.

1. STLM206 (antibody, from another filing, V domains shown) VH: EVQLLESGGGLVQPGGSLRLSCAASGFTFSIYDMIWVRQAPGKGLEWVSTIRGEGGSTYYADSVKGRFTISRDNSKNTLYLQMNSLRAEDTAVYYCARDPWSTEGSFFVLDYWGQGTLVTVSS VL: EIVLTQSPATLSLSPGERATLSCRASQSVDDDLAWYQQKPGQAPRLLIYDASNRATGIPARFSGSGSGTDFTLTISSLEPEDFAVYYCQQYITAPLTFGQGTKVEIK | 11.22
2. STLM207 (antibody, from another filing, V domains shown) VH: EVQLLESGGGLVQPGGSLRLSCAASGFTFSSYDMIWVRQAPGKGLEWVSTIRGEGGTTAYADSVKGRFTISRDNSKNTLYLQMNSLRAEDTAVYYCARDPWSTEGSFFVLDYWGQGTLVTVSS VL: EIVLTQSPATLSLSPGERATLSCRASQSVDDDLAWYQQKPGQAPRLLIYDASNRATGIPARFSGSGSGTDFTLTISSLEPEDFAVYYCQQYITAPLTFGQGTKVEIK | 10.68

Would you kindly look at the next entry?
Record STLM108 (antibody, from another filing, V domains shown) VH: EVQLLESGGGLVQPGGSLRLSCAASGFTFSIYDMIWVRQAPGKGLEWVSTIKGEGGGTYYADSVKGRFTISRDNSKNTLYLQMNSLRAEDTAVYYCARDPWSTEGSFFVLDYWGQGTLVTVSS VL: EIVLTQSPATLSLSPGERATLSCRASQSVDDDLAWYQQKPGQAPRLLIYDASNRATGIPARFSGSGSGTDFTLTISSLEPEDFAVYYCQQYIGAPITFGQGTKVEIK . Reported pKd: 10.54
